Value source: ChEMBL document CHEMBL3991601

Kd by entry:
# system-name: UniProt:O14578
# Sequence (O14578 whole entry): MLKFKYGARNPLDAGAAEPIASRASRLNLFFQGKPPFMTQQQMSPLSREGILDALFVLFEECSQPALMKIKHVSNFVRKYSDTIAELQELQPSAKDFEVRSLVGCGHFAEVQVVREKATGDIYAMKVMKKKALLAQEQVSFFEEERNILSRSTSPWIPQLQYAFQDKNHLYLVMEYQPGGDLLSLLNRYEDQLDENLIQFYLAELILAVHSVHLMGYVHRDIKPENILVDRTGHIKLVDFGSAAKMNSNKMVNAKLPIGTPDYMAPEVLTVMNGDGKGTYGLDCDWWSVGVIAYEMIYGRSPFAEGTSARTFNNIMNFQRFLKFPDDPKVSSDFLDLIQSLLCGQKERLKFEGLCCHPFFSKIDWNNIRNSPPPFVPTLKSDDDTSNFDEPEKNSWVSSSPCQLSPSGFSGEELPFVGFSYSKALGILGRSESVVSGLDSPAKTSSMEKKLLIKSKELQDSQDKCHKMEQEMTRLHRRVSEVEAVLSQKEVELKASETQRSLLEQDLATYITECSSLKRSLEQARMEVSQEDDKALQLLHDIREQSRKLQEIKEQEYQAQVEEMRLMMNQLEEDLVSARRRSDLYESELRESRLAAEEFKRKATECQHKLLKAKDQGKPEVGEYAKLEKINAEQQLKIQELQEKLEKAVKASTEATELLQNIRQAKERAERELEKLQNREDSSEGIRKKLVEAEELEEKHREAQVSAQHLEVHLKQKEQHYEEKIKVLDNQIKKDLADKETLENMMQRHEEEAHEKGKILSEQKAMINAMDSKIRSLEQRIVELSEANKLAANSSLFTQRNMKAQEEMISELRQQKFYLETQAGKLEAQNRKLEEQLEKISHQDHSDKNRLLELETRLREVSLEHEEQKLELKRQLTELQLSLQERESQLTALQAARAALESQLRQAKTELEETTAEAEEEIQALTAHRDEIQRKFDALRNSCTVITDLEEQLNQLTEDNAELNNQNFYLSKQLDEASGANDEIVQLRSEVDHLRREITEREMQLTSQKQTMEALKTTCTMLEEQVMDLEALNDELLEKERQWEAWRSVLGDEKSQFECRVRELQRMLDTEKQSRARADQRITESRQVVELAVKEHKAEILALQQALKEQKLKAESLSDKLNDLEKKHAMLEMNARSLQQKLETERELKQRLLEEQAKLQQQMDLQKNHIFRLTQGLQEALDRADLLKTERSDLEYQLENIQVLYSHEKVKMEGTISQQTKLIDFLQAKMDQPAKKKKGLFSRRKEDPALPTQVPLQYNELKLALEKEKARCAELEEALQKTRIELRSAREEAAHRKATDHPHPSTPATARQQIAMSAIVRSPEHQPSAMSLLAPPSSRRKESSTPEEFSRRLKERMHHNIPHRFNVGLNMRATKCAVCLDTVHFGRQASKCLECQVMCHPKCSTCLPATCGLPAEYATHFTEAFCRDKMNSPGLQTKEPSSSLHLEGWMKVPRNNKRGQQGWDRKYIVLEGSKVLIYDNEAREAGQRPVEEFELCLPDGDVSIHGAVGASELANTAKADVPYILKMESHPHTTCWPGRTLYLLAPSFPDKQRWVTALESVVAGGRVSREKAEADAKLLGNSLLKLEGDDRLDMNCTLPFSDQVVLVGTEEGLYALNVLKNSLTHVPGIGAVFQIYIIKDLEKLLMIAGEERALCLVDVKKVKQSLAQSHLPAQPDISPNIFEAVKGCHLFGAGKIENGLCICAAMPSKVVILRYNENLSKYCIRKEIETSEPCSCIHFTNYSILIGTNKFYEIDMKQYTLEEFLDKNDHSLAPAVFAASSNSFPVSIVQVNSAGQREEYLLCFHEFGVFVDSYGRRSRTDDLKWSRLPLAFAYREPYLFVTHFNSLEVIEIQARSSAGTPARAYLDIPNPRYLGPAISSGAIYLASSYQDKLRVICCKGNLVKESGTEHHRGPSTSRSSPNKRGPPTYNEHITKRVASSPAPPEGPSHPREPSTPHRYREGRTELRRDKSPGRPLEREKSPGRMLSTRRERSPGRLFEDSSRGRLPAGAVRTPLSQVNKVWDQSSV
The source made the active and inactive calls.
endpoint-label: Kd

{"molecule": "COc1ccc(-c2ccc3c(N4CCOC[C@@H]4C)nc(N4CCOC[C@@H]4C)nc3n2)cc1CO [AZD-8055]", "result": "> 30 µM (inactive)"}
{"molecule": "CN1CC[C@@H](c2c(O)cc(O)c3c(=O)cc(-c4ccccc4Cl)oc23)[C@@H]1CO", "result": "> 30 µM (inactive)"}
{"molecule": "Cc1cc(Nc2cc(N3CCN(C)CC3)nc(/C=C/c3ccccc3)n2)n[nH]1 [ENMD-2076]", "result": "> 30 µM (inactive)"}
{"molecule": "C1=C/COCc2cc(ccc2OCCN2CCCC2)Nc2nccc(n2)-c2cccc(c2)COC/1 [PACRITINIB]", "result": "> 30 µM (inactive)"}
{"molecule": "CC[C@H](Nc1ncnc2[nH]cnc12)c1nc2cccc(F)c2c(=O)n1-c1ccccc1 [IDELALISIB]", "result": "> 30 µM (inactive)"}
{"molecule": "Cn1cc(-c2ccc3nnc(C(F)(F)c4ccc5ncccc5c4)n3n2)cn1 [JNJ-38877605]", "result": "> 30 µM (inactive)"}
{"molecule": "COC(=O)N[C@@H](C)CNc1nccc(-c2cn(C(C)C)nc2-c2cc(Cl)cc(NS(C)(=O)=O)c2F)n1 [ENCORAFENIB]", "result": "> 30 µM (inactive)"}
{"molecule": "CN(C)C(=O)c1cc2cnc(Nc3ccc(N4CCNCC4)cn3)nc2n1C1CCCC1 [RIBOCICLIB]", "result": "> 30 µM (inactive)"}

----------
# system-name: Cyclin-G-associated kinase (Homo sapiens); note: in the data inactive means no Kd found up to 30 µM
# Sequence (O14976 whole entry): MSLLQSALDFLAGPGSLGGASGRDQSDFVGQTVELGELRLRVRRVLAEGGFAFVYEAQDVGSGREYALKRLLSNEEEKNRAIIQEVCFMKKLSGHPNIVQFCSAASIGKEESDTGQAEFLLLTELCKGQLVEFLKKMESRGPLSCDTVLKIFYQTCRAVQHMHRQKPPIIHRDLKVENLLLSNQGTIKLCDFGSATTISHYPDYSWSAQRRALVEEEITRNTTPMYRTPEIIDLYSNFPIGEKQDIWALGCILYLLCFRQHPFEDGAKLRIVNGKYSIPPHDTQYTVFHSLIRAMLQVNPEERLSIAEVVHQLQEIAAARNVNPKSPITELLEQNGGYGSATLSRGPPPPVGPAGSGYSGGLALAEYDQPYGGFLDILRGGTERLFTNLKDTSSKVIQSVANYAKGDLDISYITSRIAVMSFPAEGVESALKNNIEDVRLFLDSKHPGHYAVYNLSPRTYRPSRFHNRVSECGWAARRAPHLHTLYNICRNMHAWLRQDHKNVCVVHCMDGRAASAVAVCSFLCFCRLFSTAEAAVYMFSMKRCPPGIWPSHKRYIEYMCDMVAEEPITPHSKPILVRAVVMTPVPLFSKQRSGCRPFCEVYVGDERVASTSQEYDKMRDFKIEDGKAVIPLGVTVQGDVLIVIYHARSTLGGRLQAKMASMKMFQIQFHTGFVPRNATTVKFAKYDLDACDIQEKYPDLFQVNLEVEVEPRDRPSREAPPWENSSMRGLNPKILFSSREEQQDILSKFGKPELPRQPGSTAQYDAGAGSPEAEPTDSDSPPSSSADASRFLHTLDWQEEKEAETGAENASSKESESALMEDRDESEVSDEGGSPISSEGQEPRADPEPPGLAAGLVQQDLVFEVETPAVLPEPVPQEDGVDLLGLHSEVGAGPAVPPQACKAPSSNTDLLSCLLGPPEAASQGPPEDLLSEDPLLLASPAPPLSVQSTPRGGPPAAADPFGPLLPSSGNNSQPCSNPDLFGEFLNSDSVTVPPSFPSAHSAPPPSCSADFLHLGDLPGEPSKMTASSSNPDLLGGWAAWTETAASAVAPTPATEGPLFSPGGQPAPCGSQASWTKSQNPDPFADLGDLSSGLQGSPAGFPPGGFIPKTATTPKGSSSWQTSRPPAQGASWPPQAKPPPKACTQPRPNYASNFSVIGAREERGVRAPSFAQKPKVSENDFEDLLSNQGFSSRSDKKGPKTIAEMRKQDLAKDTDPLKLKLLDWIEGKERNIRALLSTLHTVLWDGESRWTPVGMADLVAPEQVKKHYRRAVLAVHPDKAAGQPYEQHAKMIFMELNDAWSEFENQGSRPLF
Activity calls are given as the source filed them.
Outcomes: active, inactive

{"compound": "COc1cc(CCc2cc(NC(=O)c3ccc(N4C[C@@H](C)N[C@@H](C)C4)cc3)n[nH]2)cc(OC)c1", "cat": "inactive"}
{"compound": "COc1cc(OC)c(/C=C/S(=O)(=O)Cc2ccc(OC)c(NCC(=O)O)c2)c(OC)c1", "cat": "inactive"}
{"compound": "Nc1nc(N)c2nc(-c3cccc(O)c3)c(-c3cccc(O)c3)nc2n1", "cat": "inactive"}
{"compound": "O=C1NC(=O)/C(=C/c2ccc3nccc(-c4ccncc4)c3c2)S1", "cat": "active"}
{"compound": "Cc1cc(-c2cc(O)ccc2Cl)cc2nnc(Nc3ccc(OCCN4CCCC4)cc3)nc12", "cat": "active"}
{"compound": "C=CC(=O)N1CCC(Oc2cc3c(Nc4ccc(Cl)c(Cl)c4F)ncnc3cc2OC)CC1", "cat": "inactive"}
{"compound": "CCn1c(=O)c(-c2cc[nH]n2)cc2c(C)nc(N)nc21", "cat": "inactive"}
{"compound": "C1=C/COCc2cc(ccc2OCCN2CCCC2)Nc2nccc(n2)-c2cccc(c2)COC/1", "cat": "active"}
{"compound": "CNC(=O)c1cc(Oc2ccc(NC(=O)Nc3ccc(Cl)c(C(F)(F)F)c3)c(F)c2)ccn1", "cat": "inactive"}
{"compound": "C[C@@H](Nc1cc(F)cc(F)c1)c1cc(C(=O)N(C)C)cc2c(=O)cc(N3CCOCC3)oc12", "cat": "inactive"}
{"compound": "CNC(=O)c1ccc(C)c(-n2c(C)cc(OCc3ccc(F)cc3F)c(Br)c2=O)c1", "cat": "inactive"}
{"compound": "CO[C@H]1C[C@@H]2CC[C@@H](C)[C@@](O)(O2)C(=O)C(=O)N2CCCC[C@H]2C(=O)O[C@H]([C@H](C)C[C@@H]2CC[C@@H](OCCO)[C@H](OC)C2)CC(=O)[C@H](C)/C=C(\\C)[C@@H](O)[C@@H](OC)C(=O)[C@H](C)C[C@H](C)/C=C/C=C/C=C/1C", "cat": "inactive"}
{"compound": "COc1ccc(-c2ccc3c(N4CCOC[C@@H]4C)nc(N4CCOC[C@@H]4C)nc3n2)cc1CO", "cat": "inactive"}
{"compound": "CNC(=O)c1ccc(-c2cnc3ncc(Cc4ccc5ncccc5c4)n3n2)cc1F", "cat": "inactive"}
{"compound": "Cc1ccc(-n2nc(C(C)(C)C)cc2NC(=O)NCc2cc(F)ccc2Oc2ccc3c(cnn3CCO)c2)cc1", "cat": "inactive"}
{"compound": "Cn1ncc(Cl)c1-c1cc(C(=O)N[C@H](CN)Cc2cccc(F)c2)sc1Cl", "cat": "inactive"}
{"compound": "O=C(Nc1cccc(Cl)c1)Nc1ncc(CCNc2ncnc3ccsc23)s1", "cat": "inactive"}
{"compound": "Cc1cc(Nc2cc(N3CCN(C)CC3)nc(/C=C/c3ccccc3)n2)n[nH]1", "cat": "inactive"}
{"compound": "O=C(Nc1ccc(-c2ccnc(Nc3ccc(N4CCOCC4)cc3)n2)cc1)C1CCCN1 (stereo unspecified)", "cat": "active"}
{"compound": "Cn1cc(-c2ccc(F)c(C(F)(F)F)c2)nc1C1CCN(c2ncnc3[nH]ncc23)CC1", "cat": "inactive"}
{"compound": "CCN1CCN(Cc2ccc(-c3cc4c(N[C@H](C)c5ccccc5)ncnc4[nH]3)cc2)CC1", "cat": "inactive"}
{"compound": "COC(=O)N[C@@H](C)CNc1nccc(-c2cn(C(C)C)nc2-c2cc(Cl)cc(NS(C)(=O)=O)c2F)n1", "cat": "inactive"}
{"compound": "Cc1nc(N)sc1-c1ccnc(Nc2ccc(N3CCOCC3)cc2)n1", "cat": "active"}
{"compound": "CC[C@@H]1C(=O)N(C)c2cnc(Nc3ccc(C(=O)N[C@H]4CC[C@H](N5CCN(CC6CC6)CC5)CC4)cc3OC)nc2N1C(C)C", "cat": "inactive"}
{"compound": "Cc1ccc(NC(=O)c2ccc(CN3CC[C@H](N(C)C)C3)c(C(F)(F)F)c2)cc1Nc1nccc(-c2cncnc2)n1", "cat": "inactive"}
{"compound": "COc1cc(N2CCC(N3CCN(C)CC3)CC2)ccc1Nc1ncnc(Nc2ccccc2S(=O)(=O)C(C)C)n1", "cat": "active"}
{"compound": "CC(=O)Nc1cccc(-n2c(=O)n(C3CC3)c(=O)c3c(Nc4ccc(I)cc4F)n(C)c(=O)c(C)c32)c1", "cat": "inactive"}
{"compound": "CN(C)C(=O)c1cc2cnc(Nc3ccc(N4CCNCC4)cn3)nc2n1C1CCCC1", "cat": "active"}
{"compound": "COCCNCc1ccc(-c2cc3nccc(Oc4ccc(NC(=S)NC(=O)Cc5ccc(F)cc5)cc4F)c3s2)nc1", "cat": "inactive"}
{"compound": "CN1N=C(N)c2cn([C@@H]3O[C@H](COP(=O)(O)O)[C@@H](O)[C@H]3O)c3ncnc1c23 [TRICIRIBINE PHOSPHATE]", "cat": "inactive"}
{"compound": "Cc1c(F)cc(C(=O)NC2CC2)cc1-c1ccc(C(=O)NCC(C)(C)C)cn1", "cat": "inactive"}
